- Assay summary: Light fastness of printed samples (density loss after xenon lamp irradiation)
- Assay type: physicochemical
- Measurement context: xenon lamp, total illumination 20 kJoule/cm^2; Table 6
Experimental endpoint: Density loss in % (%)

Compound	Obs value
O=C(O)c1ccc(N=Nc2ccc(N=Nc3c(S(=O)(=O)O)cc4ccc(NCCS(=O)(=O)O)cc4c3O)c3cc(S(=O)(=O)O)ccc23)cc1Cl	8

a: O=P(O)(O)Cc1ccc(N=Nc2ccc(N=Nc3c(S(=O)(=O)O)cc4ccc(NCCS(=O)(=O)O)cc4c3O)c3cc(S(=O)(=O)O)ccc23)cc1
b: O=S(=O)(O)CCNc1ccc2cc(S(=O)(=O)O)c(N=Nc3ccc(N=Nc4ccc(S(=O)(=O)O)cc4)c4ccc(S(=O)(=O)O)cc34)c(O)c2c1 [Compound 5]
c: O=S(=O)(O)CCNc1ccc2cc(S(=O)(=O)O)c(N=Nc3ccc(N=Nc4ccc5c(S(=O)(=O)O)cc(S(=O)(=O)O)cc5c4)c4ccc(S(=O)(=O)O)cc34)c(O)c2c1
In: rank_up(items): orders items by reported Density loss in % in ascending numerical order. Please respond with the labels ordered as the question requires.
Out: c, b, a
(c: 3%, b: 6%, a: 13%)

P: O=S(=O)(O)CCNc1ccc2cc(S(=O)(=O)O)c(N=Nc3ccc(N=Nc4cc(Cl)c(S(=O)(=O)O)cc4Cl)c4ccc(S(=O)(=O)O)cc34)c(O)c2c1
Q: O=S(=O)(O)CCNc1ccc2cc(S(=O)(=O)O)c(N=Nc3ccc(N=Nc4ccc(CCO)cc4)c4ccc(S(=O)(=O)O)cc34)c(O)c2c1
In: // max by Density loss in % over [ P , Q ] Pick one and reply with its label.
Out: Q
